zone of inhibition at 20 µg/disc for assorted compounds
Tested on: Bartonella vinsonii
Experiment: Antibacterial activity against Bartonella vinsonii ATCC VR152 at 20 ug per disc after 7 days by Kirby-Bauer disc diffusion assay
Type: functional
Conditions: ATCC VR152, 168 h, read-out: DIZ
Kindly answer with a numeric value in mm, unit omitted.

INSERT INTO measurements (compound, tested_system, readout_name, reading_unit, measured_result) VALUES
  ('O=C(O)c1cn(C2CC2)c2cc(N3CCN(C(=O)c4ccccc4)CC3)c(F)cc2c1=O', 'Bartonella vinsonii', 'zone of inhibition at 20 µg/disc', 'mm', 12);

Report zone of inhibition at 20 µg/disc for CCC(CC)C(=O)N1CCN(c2cc3c(cc2F)c(=O)c(C(=O)O)cn3C2CC2)CC1 please. 25

Could you do the same for CC(CC(=O)N1CCN(c2cc3c(cc2F)c(=O)c(C(=O)O)cn3C2CC2)CC1)CC(C)(C)C (stereo not drawn) , please? 10

* * *

Test system: Bartonella vinsonii
Test: Antibacterial activity against Bartonella vinsonii ATCC VR152 at 20 ug per disc after 7 days by Kirby-Bauer disc diffusion assay
Assay type: functional
Settings: ATCC VR152, 168 h, read-out: DIZ
Readout name: zone of inhibition at 20 µg/disc (mm)
// note: answer is a bare numeric in mm

Would you please look over these solved cases?
INSERT INTO assay_data (compound, measured_result) VALUES
  ('CCCCCCC(=O)N1CCN(c2cc3c(cc2F)c(=O)c(C(=O)O)cn3C2CC2)CC1', 22),
  ('CCC(C)(C)C(=O)N1CCN(c2cc3c(cc2F)c(=O)c(C(=O)O)cn3C2CC2)CC1', 33),
  ('CCCCCCCCC(=O)N1CCN(c2cc3c(cc2F)c(=O)c(C(=O)O)cn3C2CC2)CC1', 14),
  ('CCCCCCCC(=O)N1CCN(c2cc3c(cc2F)c(=O)c(C(=O)O)cn3C2CC2)CC1', 15);

What does the data say about its zone of inhibition at 20 µg/disc? Entry: CCCCC(CC)C(=O)N1CCN(c2cc3c(cc2F)c(=O)c(C(=O)O)cn3C2CC2)CC1 (stereo not given) 15

* * *

Below, each entry is listed alongside its reported zone of inhibition at 20 µg/disc.
Test system: Bartonella quintana
Test: Antibacterial activity against Bartonella quintana ATCC VR358 at 20 ug per disc after 7 days by Kirby-Bauer disc diffusion assay
Type: functional
Conditions: ATCC VR358, 168 h, read-out: DIZ
Give the value in mm but do not write mm after it.

INSERT INTO results (compound, readout_name, measured_result) VALUES
  ('CCCC(CCC)C(=O)N1CCN(c2cc3c(cc2F)c(=O)c(C(=O)O)cn3C2CC2)CC1', 'zone of inhibition at 20 µg/disc', 6);

// lookup zone of inhibition at 20 µg/disc for CCCCC(=O)N1CCN(c2cc3c(cc2F)c(=O)c(C(=O)O)cn3C2CC2)CC1 35

Note, next up: CCCCCCC(=O)N1CCN(c2cc3c(cc2F)c(=O)c(C(=O)O)cn3C2CC2)CC1 20

Quick one: CCC(C)(C)C(=O)N1CCN(c2cc3c(cc2F)c(=O)c(C(=O)O)cn3C2CC2)CC1 27

Same read-out for CCCCCC(=O)N1CCN(c2cc3c(cc2F)c(=O)c(C(=O)O)cn3C2CC2)CC1 ? 30

Also O=C(O)c1cn(C2CC2)c2cc(N3CCN(C(=O)c4ccccc4)CC3)c(F)cc2c1=O , if possible. 7

Note, next up: CC(=O)N1CCN(c2cc3c(cc2F)c(=O)c(C(=O)O)cn3C2CC2)CC1 6

What about this compound? CCCCCCCCC(=O)N1CCN(c2cc3c(cc2F)c(=O)c(C(=O)O)cn3C2CC2)CC1 11

# iterate: CCC(=O)N1CCN(c2cc3c(cc2F)c(=O)c(C(=O)O)cn3C2CC2)CC1 58

Same read-out for O=C(O)c1cn(C2CC2)c2cc(N3CCNCC3)c(F)cc2c1=O [CIPROFLOXACIN] ? 6

And the next one, CC(C)CC(=O)N1CCN(c2cc3c(cc2F)c(=O)c(C(=O)O)cn3C2CC2)CC1 ? 36

src = ChEMBL document CHEMBL2150951
